Source: patent US10343991B2

Tested on: MDA-MB-231 cells
assay: SRB assay, cell viability
Format: cell-based
conditions: Homo sapiens, 48 h, average of three experiments
In this section, each of the compounds is paired with its reported viability at 10 µM.
assay metric: viability at 10 µM (%)

Cc1ccsc1/C=C1\C(=O)Nc2cc(O)c(C(C#Cc3ccccc3)c3ccccc3)cc21 (stereo not shown): 35.9
COc1cccc(C(C#CCOCc2ccccc2)c2cc3c(cc2O)NC(=O)C3)c1OC (stereo not shown): 42.8
Cc1cc(C)c(/C=C2\C(=O)Nc3cc(O)c(C(C#Cc4ccccc4)c4ccccc4)cc32)[nH]1 (stereo not shown): 74.5
COc1cccc(-c2c(COCc3ccccc3)oc3cc4c(cc23)/C(=C/c2sccc2C)C(=O)N4)c1OC: 111
Cc1cc(C)c(/C=C2\C(=O)Nc3cc4oc(Cc5ccccc5)c(-c5ccccc5)c4cc32)[nH]1: 41.3
CN(C)c1ccc(/C=C2\C(=O)Nc3cc(O)c(C(C#Cc4ccccc4)c4ccccc4)cc32)c2ccccc12 (stereo not shown): 85.9
CN(C)c1ccc(/C=C2\C(=O)Nc3cc4oc(Cc5ccccc5)c(-c5ccccc5)c4cc32)c2ccccc12: 71.3
Cc1ccc(S(=O)(=O)n2cc(-c3c(Cc4ccccc4)oc4cc5c(cc34)/C(=C/c3[nH]c(C)cc3C)C(=O)N5)c3ccccc32)cc1: 75.5
Cc1ccsc1/C=C1\C(=O)Nc2cc3oc(Cc4ccccc4)c(-c4ccccc4)c3cc21: 43.2
O=C1Cc2cc3c(-c4ccccc4)c(Cc4ccccc4)oc3cc2N1: 53.8
Cc1ccc(S(=O)(=O)n2cc(C(C#Cc3ccccc3)c3cc4c(cc3O)NC(=O)/C4=C\c3[nH]c(C)cc3C)c3ccccc32)cc1 (stereo not shown): 63.8
CCN(CC)CCNC(=O)c1c(C)[nH]c(/C=C2\C(=O)Nc3ccc(F)cc32)c1C [SUNT, Sunitinib, reference compound]: 39.5
COc1cccc(-c2c(CCOCc3ccccc3)oc3cc4c(cc23)CC(=O)N4)c1OC: 72.5
O=C1Cc2cc(C(C#Cc3ccccc3)c3ccccc3)c(O)cc2N1 (stereo not shown): 71.3
COc1cccc(C(C#CCOCc2ccccc2)c2cc3c(cc2O)NC(=O)/C3=C\c2[nH]c(C)cc2C)c1OC (stereo not shown): 37.7
COc1cccc(-c2c(COCc3ccccc3)oc3cc4c(cc23)/C(=C/c2[nH]c(C)cc2C)C(=O)N4)c1OC: 109
